Data credit: PubChem BioAssay (NCI)

Kindly state TGI for each of the entries shown.
- System: RXF 393 renal
- assay.comment: NCI tumour cell line growth inhibition, 48 h
Answers are plain numbers, in µM.

Please review the entries below; each comes with its answer.
[
  {
    "compound": "N#CC1=C(N)NC(=S)C(C#N)C12Nc1ccccc1S2 (stereo not given)",
    "target.or.system": "RXF 393 renal",
    "readout.name": "TGI",
    "observed.result": 57.5
  },
  {
    "compound": "BrC(Br)([P+](c1ccccc1)(c1ccccc1)c1ccccc1)[P+](c1ccccc1)(c1ccccc1)c1ccccc1",
    "target.or.system": "RXF 393 renal",
    "readout.name": "TGI",
    "observed.result": 23.6
  },
  {
    "compound": "CN1C=C(C(N)=O)C2CC(O)[C@@](NC(=O)CS(N)(=O)=O)(C(=O)O)C2C1 (stereo not given in full)",
    "target.or.system": "RXF 393 renal",
    "readout.name": "TGI",
    "observed.result": 4.16
  },
  {
    "compound": "CCCCCCCCCCCCCCCCCCNC(=O)[C@H]1CSC(c2ccc(F)c(OC)c2)N1 (stereo not given in full)",
    "target.or.system": "RXF 393 renal",
    "readout.name": "TGI",
    "observed.result": 1.6
  },
  {
    "compound": "CC1=CC(O)CC(C)(C)C1/C=C/C(C)=C/C=C/C(C)=C/C=C/C=C(C)/C=C/C=C(C)/C=C/C1=C(C)CC(O)CC1(C)C (stereo not given)",
    "target.or.system": "RXF 393 renal",
    "readout.name": "TGI",
    "observed.result": 33.2
  },
  {
    "compound": "Cc1ccc(NCCNCC(O)CO)c2c(=O)c3ccccc3sc12 (stereo not given)",
    "target.or.system": "RXF 393 renal",
    "readout.name": "TGI",
    "observed.result": 2.89
  }
]

// switching to the query compound
Need TGI, item C#CCn1cc(C=C2C(=O)NC(=S)NC2=O)c2cc(Cl)ccc21
3.65

----------
- Tested on: HOP-62 NSCLC
- assay.comment: NCI tumour cell line growth inhibition, 48 h; in the data active means GI50 below about 0.43 µM; inactive means the rest
Choose one outcome from this list and give only that: true = active, false = inactive

[
  {
    "compound": "N#CC1=C(N)Oc2c(sc3c(Br)cccc23)C1c1ccc(F)cc1 (centres undefined)",
    "target.or.system": "HOP-62 NSCLC",
    "label.value": "true"
  },
  {
    "compound": "COc1ccc(CNC(=O)c2ccc(-c3cc(-c4nnc(C)o4)ccc3C)cc2)cc1",
    "target.or.system": "HOP-62 NSCLC",
    "label.value": "false"
  },
  {
    "compound": "Cc1cc(S(N)(=O)=O)c(S/C(=N\\NS(=O)(=O)c2ccccc2)c2ccc(Cl)c(Cl)c2)cc1Cl",
    "target.or.system": "HOP-62 NSCLC",
    "label.value": "false"
  },
  {
    "compound": "CC(=O)Nc1ccc2c(c1)CN1C(=O)c3ccccc3C1=N2",
    "target.or.system": "HOP-62 NSCLC",
    "label.value": "false"
  },
  {
    "compound": "O=C(CCl)Nc1ccc(C(=O)N/N=C/c2ccc(Cl)cc2)cc1",
    "target.or.system": "HOP-62 NSCLC",
    "label.value": "false"
  },
  {
    "compound": "CCc1ccc(OCc2ccccc2C(=O)Nc2ccc3nc(C)cc(N)c3c2)cc1",
    "target.or.system": "HOP-62 NSCLC",
    "label.value": "false"
  }
]

What is the recorded call for this compound in the test? Cc1cc2c(-c3nc4ccccn4c3NC34CC5CC(CC(C5)C3)C4)c(O)c(O)cc2c(O)c1-c1c(C)cc2c(-c3nc4ccccn4c3NC34CC5CC(CC(C5)C3)C4)c(O)c(O)cc2c1O
false

Query C#CCn1cc(C=C2C(=O)NC(=S)NC2=O)c2cc(Cl)ccc21 next
false

And then Cc1ccc(NCCNCC(O)CO)c2c(=O)c3ccccc3sc12 (centres undefined) , what is it?
false
